Target: recombinant human TFPI (tissue factor pathway inhibitor) (human, UniProt P10646 29-304)
Assay: cell-based or functional assay
Assay endpoint: FXa assay % of FXa alone, 2.5 nM Ab, 10 nM TFPI (%)
Output spec: scalar in %, unitless text.

- Binder: "clone 4287 (antibody, V domains shown) VH: EVQLVESGGGLVKPGGSLRLSCAASGFTFSKYAMNWFRQAPGKGLEWVSTITTGGSYTYYADSVEGRFTISRDNAKNSLYLQMNSLRAEDTAVYYCARQHPYGNFLMDYWGQGTLVTVSS VL: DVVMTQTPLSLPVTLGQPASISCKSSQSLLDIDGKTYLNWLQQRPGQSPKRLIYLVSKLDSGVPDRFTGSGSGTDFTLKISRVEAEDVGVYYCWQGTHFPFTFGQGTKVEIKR"
  Quantity unit: "%"
  Numeric readout: 3.4

Now look at this one.
Input line: Name the recorded FXa assay % of FXa alone, 2.5 nM Ab, 10 nM TFPI for clone 1224 (antibody, V domains shown) VH: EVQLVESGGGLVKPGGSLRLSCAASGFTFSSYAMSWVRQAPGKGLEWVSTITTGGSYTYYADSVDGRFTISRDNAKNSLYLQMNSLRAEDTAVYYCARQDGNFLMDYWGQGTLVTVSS VL: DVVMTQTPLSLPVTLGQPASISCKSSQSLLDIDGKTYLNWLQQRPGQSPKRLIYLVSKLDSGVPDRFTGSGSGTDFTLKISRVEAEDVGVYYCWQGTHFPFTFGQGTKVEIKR .
Output line: 5.1
